test system: RXF 393; experiment: NCI tumour cell line growth inhibition, 48 h
Calls of active or inactive are those of the source. Rule as the data show it: active = GI50 up to about 1.1 µM and inactive = higher. Non-standard residues stand in square brackets, D forms with d. Residues, ends and D or L forms follow the SMILES beside them. ξ: configuration not given here. *: point of attachment. Benzoyl(4-OMe) = COc1ccc(C(=O)*)cc1; NMeF = CN[C@@H](Cc1ccccc1)C(=O)O; NMeN = CN[C@@H](CC(N)=O)C(=O)O; 2Thi = N[CH](Cc1cccs1)C(=O)O; NMeV = CN[C@H](C(=O)O)C(C)C; ξNMeV = CNC(C(=O)O)C(C)C; Boc = CC(C)(C)OC(=O)*; ξNMeA = CNC(C)C(=O)O; ξV = CC(C)C(N)C(=O)O
Possible outcomes: 1 (active), -1 (inactive)

compound="CC(C)C1=CC23CCC4C(C)(C(=O)O)CCCC4(C)C2CC1C1C(=O)N(c2ccccc2N2C(=O)C4C5CC6C7(C)CCCC(C)(C(=O)O)C7CCC6(C=C5C(C)C)C4C2=O)C(=O)C13 (stereo not drawn)" class_assignment=-1
compound="COC(=O)C(/C(=N/N)C(=O)Nc1cc(Cl)c(Cl)cc1Cl)c1nc2ccc(Cl)cc2nc1O (stereo not drawn)" class_assignment=-1
compound=CN(C)CCCOc1nc2c(c(=O)n(C)c(=O)n2C)n1C.SC1=NC=NC2=NC=NC12 class_assignment=-1
compound="COC(=O)C1(O)C(c2ccccc2)NC2(C)CCCC21 (stereo not drawn)" class_assignment=-1
compound=N=c1oc2ccc(Cl)cc2cc1C(=O)NCc1ccccc1 class_assignment=-1
compound="N#Cc1ccc(C2SCc3nc4ccccc4n32)cc1 (stereo not drawn)" class_assignment=-1
compound=CCOCC(=O)N[C@H]1CCc2cc(OC)c(OC)c(OC)c2-c2ccc(SC)c(=O)cc21 class_assignment=1
compound="O=C1C(/C=N/CCc2c[nH]c3ccccc23)C(C(F)(F)F)=NN1c1nc2ccccc2s1 (stereo not drawn)" class_assignment=-1
compound="O=C(O)C1CCc2nnc(-c3ccccc3)n21 (stereo not drawn)" class_assignment=-1
compound=NC1=NC(=O)[C@H](CSCc2ccccc2)N1C(=O)OCc1ccccc1 class_assignment=-1
compound="Cc1nnc2n1N=C(c1ccccc1)C(c1ccccc1)S2 (stereo not drawn)" class_assignment=-1
compound="CCCCOC(=O)C1C2CCC(O2)C1C(=O)OCCCC (stereo not drawn)" class_assignment=-1
compound="CC1C[C@]2(C)C(=O)N(c3ccccc3)C(=N)[C@@H]2N(C)c2ccccc21 (stereo partly drawn)" class_assignment=-1
compound="CC1(Br)C(=O)NC(=O)N([C@H]2C[C@H](O)[C@@H](CO)O2)C1N=[N+]=[N-] (stereo partly drawn)" class_assignment=-1
compound=CCN(CC)C(=O)N[C@@H](Cc1ccccc1)C(=O)NC class_assignment=-1
compound=O=C1Nc2ccc([N+](=O)[O-])cc2/C1=N/Nc1ccc([N+](=O)[O-])cc1 class_assignment=-1
compound="O=C(O)C1C2C=CC(O2)C1C(=O)NCc1ccccn1 (stereo not drawn)" class_assignment=-1
compound=COC(=O)/C(=C/c1ccc(OC)cc1)c1cc(OC)c(OC)c(OC)c1 class_assignment=-1
compound="C[C@@H]1OC(=O)C[C@H]2CC(=O)N(CCC3CN(S(=O)(=O)C(F)(F)F)c4ccc(Cc5ccc6c(c5)C(CCN5C[C@H]7[C@@H](CC(=O)O[C@H]7C)CC5=O)CN6S(=O)(=O)C(F)(F)F)cc43)C[C@@H]21 (stereo partly drawn)" class_assignment=-1
compound="CC1(C)CC23C(=O)N(c4ccccc4)C(Nc4ccccc4)=NC2=CC(C#N)=C(C#N)C3O1 (stereo not drawn)" class_assignment=-1
compound="CC(=O)SCCC1c2[nH]c3ccccc3c2CCN1O (stereo not drawn)" class_assignment=-1
compound="N#C/C=C1\\C=CC(O)C(O)C1OC1OC(CO)C(O)C(O)C1O (stereo not drawn)" class_assignment=-1
compound=Nc1ccccc1S(=O)(=O)c1ccccc1 class_assignment=-1
compound="CCCCN(C(=O)c1ccccc1)C1CCC(=O)c2[nH]c3ccccc3c21 (stereo not drawn)" class_assignment=-1
compound=CCCc1cc(=O)oc2c3c(c4c(c12)OC(C)(C)C=C4)O[C@@H](C)[C@H](C)C3=O class_assignment=-1
compound="O=P1(N(CCCl)CCCl)NCCCO1 (stereo not drawn) [CYCLOPHOSPHAMIDE ANHYDROUS]" class_assignment=-1
compound=CC(=O)OCCOCNC(=S)N/N=C(\C)c1cccs1 class_assignment=-1
compound=O=C1Cc2c(-c3cccs3)cc(-c3ccccc3)nc2-c2ccccc2N1 class_assignment=-1
compound="CCC(C)C(NC(=O)C(Cc1cccs1)NC(=O)C(CC(C)C)NC(=O)C(CC(C)C)NC(=O)C(CCCCN)NC(=O)C(CCCNC(=N)N)NC(=O)c1ccc(OC)cc1)C(=O)NC(CC(C)C)C(N)=O (stereo not drawn) ({Benzoyl(4-OMe)}-RKLL[2Thi]IL-NH2; configuration not given here)" class_assignment=-1
compound="CN(C)C(C1=C(O)C(c2ccccc2)N(c2ccccc2)C1=O)N1CCOCC1 (stereo not drawn)" class_assignment=-1
compound="COc1cc(C(C)O)c[n+](CCc2c[nH]c3ccccc23)c1 (stereo not drawn)" class_assignment=-1
compound=CCOC(=O)c1cn(-c2ccccc2)c(=S)n2c1nc1ccccc12 class_assignment=-1
compound="CCCCCCC1OC23OC1CCC2C(O)CCC3O (stereo not drawn)" class_assignment=-1
compound=CC(C)CNc1nc(N)nc(O)c1NC=O class_assignment=-1
compound=N#CC1=C(Cl)NC(Cl)=C(C#N)C1c1c(Cl)cccc1Cl class_assignment=-1
compound="COC(=O)C(C)N(C)C(=O)[C@H](CC(N)=O)N(C)C(=O)[C@@H]1CCCN1C(=O)[C@H](C(C)C)N(C)C(=O)C(C(C)C)N(C)C(=O)[C@H](Cc1ccccc1)N(C)C(=O)C(NC(=O)OC(C)(C)C)C(C)C (stereo partly drawn) (Boc-[ξV][NMeF][ξNMeV][NMeV]P[NMeN][ξNMeA]-OMe)" class_assignment=-1
compound=CCC(=O)NC(NNS(=O)(=O)c1ccc(C)cc1)(C(F)(F)F)C(F)(F)F class_assignment=-1
compound=Cc1cc(NC(=O)NC(=O)c2ccccc2[N+](=O)[O-])ccc1Oc1ncc(Cl)cn1 class_assignment=1

====

tested on: K562; experiment: NCI tumour cell line growth inhibition, 48 h
Calls of active or inactive are those of the source. No stated cut-off is given here; in the data, active = GI50 up to about 1.1 µM and inactive = higher.
Possible outcomes: active, inactive

compound=Cc1cc(Cl)ccc1N1C(=O)C(=O)C(c2nc3ccccc3s2)C(=O)C1=O class_assignment=inactive
compound="COc1nc2c(c(=O)n1C)NC(C(O)C(O)CO)C=N2 (stereo not given)" class_assignment=inactive
compound="Cc1ccc(NC(=O)/C(=N/N(C)C)C(C2OC(=O)c3ccccc32)[N+](=O)[O-])cc1 (stereo not given)" class_assignment=inactive
compound="Cc1coc2c1C(=O)C(=O)c1c-2ccc2c1CCCC2(C)C [TANSHINONE IIA]" class_assignment=active
compound=CN1C2(c3ccccc3)C(C(=O)c3ccccc3)=C(C(=O)c3ccccc3)C1(c1ccccc1)c1c(-c3ccccc3)sc(-c3ccccc3)c12 class_assignment=inactive
compound="O=C1C2CCCCC2C(=O)N1n1c(Cc2ccccc2)n[nH]c1=O (stereo not given)" class_assignment=inactive
compound=CCOC(=O)c1cc(-c2ccc([N+](=O)[O-])cc2)c([N+](=O)[O-])[nH]1 class_assignment=inactive
compound="O=c1ccn(C2OC(CO)C(O)C2F)c(=O)n1Cc1ccccc1 (stereo not given)" class_assignment=inactive
compound=CCOC(=O)c1c[nH]c2cc3c(cc2c1=O)CCS3(=O)=O.CCOC(=O)c1c[nH]c2ccc3c(c2c1=O)S(=O)(=O)CC3 class_assignment=inactive
compound=CCOc1cc(-c2nc3ccccn3c2/N=C/c2cc([N+](=O)[O-])cc([N+](=O)[O-])c2O)ccc1O class_assignment=inactive
compound=COc1ccc(-c2cc(O)c3cc4c(cc3n2)OCO4)cc1OC class_assignment=inactive
compound=CS(=O)(=O)CC1=Nc2nnc(CCCCCCCc3nnc4n3C(=O)C(CS(C)(=O)=O)=N4)n2C1=O class_assignment=inactive
compound="CSc1nc(NC2OC(COC(C)=O)C(OC(C)=O)C(OC(C)=O)C2OC(C)=O)c2c(OC(C)=O)c(C)c(=O)oc2n1 (stereo not given)" class_assignment=inactive
compound="O=C1CCCC[C@H]1C(O)CC1CC(=O)N(c2ccccc2)C(=O)C1 (stereo not given in full)" class_assignment=inactive
compound=N#CCSc1c(-c2ccccc2)c(=O)n(-c2ccccc2)c(=S)n1-c1ccccc1 class_assignment=inactive
compound="CC1C[C@]2(C)C(=O)N(c3ccccc3)C(=N)[C@@H]2N(C)c2ccccc21 (stereo not given in full)" class_assignment=inactive
compound=CN(C)Cc1[nH]c2ccccc2c1C(=O)c1ccccc1 class_assignment=inactive
compound=CCOP(=O)(CN=C(c1ccccc1)c1ccccc1)OCC class_assignment=inactive
compound="O=C1c2cc(Cl)ccc2N=C(NCCCl)C2CSCN12 (stereo not given)" class_assignment=inactive
compound=C#CCN(Cc1ccc2nc(OC)c(OC)nc2c1)c1cc(OC)c(OC)c(OC)c1 class_assignment=inactive

From: ChEMBL document CHEMBL1201862
